assay: In vitro stability in PBS and serum; format: in vitro ADME; conditions: human serum, 37 °C, after 5 h; starting radiochemical purity 94.3%; read-out: intact radiocomplex
Measured metric: remaining at 5 h

>>> result("C[C@@H](O)[C@H](NC(=O)[C@@H]1CSSC[C@H](NC(=O)[C@@H](Cc2ccccc2)NC(=S)Nc2ccc(CCCC(CN3CCN(CC(=O)O)CCN(CC(=O)O)CC3)N(CC(=O)O)CC(=O)O)cc2)C(=O)N[C@@H](Cc2ccc(O)cc2)C(=O)N[C@H](Cc2c[nH]c3ccccc23)C(=O)N[C@@H](CCCCN)C(=O)N[C@@H]([C@@H](C)O)C(=O)N1)C(=O)O (stereo partly shown) [[^213Bi]Bi-3p-C-NETA-TATE, metal not drawn]")
"90%"
